Origin of values: patent US10577317B2

Test method notes: Solubility (mg/mL) in water, buffers, simulated fluids and organic solvents (Table 1)
Format: physicochemical
Assay setup: aqueous buffer; 0.05M Acetate Buffer; solution pH 4.5; read-out: Solubility (mg/mL): 0.05M Acetate Buffer
Readout kind: solubility

Molecule	solubility
CCN1CCC[C@H]1CNC(=O)c1cc(S(=O)(=O)CC)c(N)cc1OC [(S)-amisulpride Form A′]	> 100 mg/mL

Which solubility is listed for CCN1CCC[C@@H]1CNC(=O)c1cc(S(=O)(=O)CC)c(N)cc1OC [(R)-amisulpride Form A] ?
> 100 mg/mL

====

Test method notes: Solubility (mg/mL) in water, buffers, simulated fluids and organic solvents (Table 1)
Format: physicochemical
Assay setup: water; solution pH 10.2 (Form A), 10.3 (Form A′); read-out: Solubility (mg/mL): Water
Readout kind: solubility

Which solubility is listed for CCN1CCCC1CNC(=O)c1cc(S(=O)(=O)CC)c(N)cc1OC (racemic) [crystalline racemic amisulpride, reference compound] ?
< 1 mg/mL
